target: RyR1 (Sus scrofa, UniProt P16960); assay: FLT-FRET between D-FKBP and A-CaM bound to RyR1 in skeletal SR membranes (HTS and dose-response); format: binding, porcine; set-up: RyR1 in skeletal SR membranes, and RyR2 in cardiac SR membranes; from tissue; host or cells: porcine longissimus dorsi muscle (heavy SR vesicles); conditions: 10 μM compound, 2-hour incubation, 30 nM Ca2+, 5 mM GSSG, 0.3 μM A-CaM, 1536-well
Sequence (P16960 whole entry): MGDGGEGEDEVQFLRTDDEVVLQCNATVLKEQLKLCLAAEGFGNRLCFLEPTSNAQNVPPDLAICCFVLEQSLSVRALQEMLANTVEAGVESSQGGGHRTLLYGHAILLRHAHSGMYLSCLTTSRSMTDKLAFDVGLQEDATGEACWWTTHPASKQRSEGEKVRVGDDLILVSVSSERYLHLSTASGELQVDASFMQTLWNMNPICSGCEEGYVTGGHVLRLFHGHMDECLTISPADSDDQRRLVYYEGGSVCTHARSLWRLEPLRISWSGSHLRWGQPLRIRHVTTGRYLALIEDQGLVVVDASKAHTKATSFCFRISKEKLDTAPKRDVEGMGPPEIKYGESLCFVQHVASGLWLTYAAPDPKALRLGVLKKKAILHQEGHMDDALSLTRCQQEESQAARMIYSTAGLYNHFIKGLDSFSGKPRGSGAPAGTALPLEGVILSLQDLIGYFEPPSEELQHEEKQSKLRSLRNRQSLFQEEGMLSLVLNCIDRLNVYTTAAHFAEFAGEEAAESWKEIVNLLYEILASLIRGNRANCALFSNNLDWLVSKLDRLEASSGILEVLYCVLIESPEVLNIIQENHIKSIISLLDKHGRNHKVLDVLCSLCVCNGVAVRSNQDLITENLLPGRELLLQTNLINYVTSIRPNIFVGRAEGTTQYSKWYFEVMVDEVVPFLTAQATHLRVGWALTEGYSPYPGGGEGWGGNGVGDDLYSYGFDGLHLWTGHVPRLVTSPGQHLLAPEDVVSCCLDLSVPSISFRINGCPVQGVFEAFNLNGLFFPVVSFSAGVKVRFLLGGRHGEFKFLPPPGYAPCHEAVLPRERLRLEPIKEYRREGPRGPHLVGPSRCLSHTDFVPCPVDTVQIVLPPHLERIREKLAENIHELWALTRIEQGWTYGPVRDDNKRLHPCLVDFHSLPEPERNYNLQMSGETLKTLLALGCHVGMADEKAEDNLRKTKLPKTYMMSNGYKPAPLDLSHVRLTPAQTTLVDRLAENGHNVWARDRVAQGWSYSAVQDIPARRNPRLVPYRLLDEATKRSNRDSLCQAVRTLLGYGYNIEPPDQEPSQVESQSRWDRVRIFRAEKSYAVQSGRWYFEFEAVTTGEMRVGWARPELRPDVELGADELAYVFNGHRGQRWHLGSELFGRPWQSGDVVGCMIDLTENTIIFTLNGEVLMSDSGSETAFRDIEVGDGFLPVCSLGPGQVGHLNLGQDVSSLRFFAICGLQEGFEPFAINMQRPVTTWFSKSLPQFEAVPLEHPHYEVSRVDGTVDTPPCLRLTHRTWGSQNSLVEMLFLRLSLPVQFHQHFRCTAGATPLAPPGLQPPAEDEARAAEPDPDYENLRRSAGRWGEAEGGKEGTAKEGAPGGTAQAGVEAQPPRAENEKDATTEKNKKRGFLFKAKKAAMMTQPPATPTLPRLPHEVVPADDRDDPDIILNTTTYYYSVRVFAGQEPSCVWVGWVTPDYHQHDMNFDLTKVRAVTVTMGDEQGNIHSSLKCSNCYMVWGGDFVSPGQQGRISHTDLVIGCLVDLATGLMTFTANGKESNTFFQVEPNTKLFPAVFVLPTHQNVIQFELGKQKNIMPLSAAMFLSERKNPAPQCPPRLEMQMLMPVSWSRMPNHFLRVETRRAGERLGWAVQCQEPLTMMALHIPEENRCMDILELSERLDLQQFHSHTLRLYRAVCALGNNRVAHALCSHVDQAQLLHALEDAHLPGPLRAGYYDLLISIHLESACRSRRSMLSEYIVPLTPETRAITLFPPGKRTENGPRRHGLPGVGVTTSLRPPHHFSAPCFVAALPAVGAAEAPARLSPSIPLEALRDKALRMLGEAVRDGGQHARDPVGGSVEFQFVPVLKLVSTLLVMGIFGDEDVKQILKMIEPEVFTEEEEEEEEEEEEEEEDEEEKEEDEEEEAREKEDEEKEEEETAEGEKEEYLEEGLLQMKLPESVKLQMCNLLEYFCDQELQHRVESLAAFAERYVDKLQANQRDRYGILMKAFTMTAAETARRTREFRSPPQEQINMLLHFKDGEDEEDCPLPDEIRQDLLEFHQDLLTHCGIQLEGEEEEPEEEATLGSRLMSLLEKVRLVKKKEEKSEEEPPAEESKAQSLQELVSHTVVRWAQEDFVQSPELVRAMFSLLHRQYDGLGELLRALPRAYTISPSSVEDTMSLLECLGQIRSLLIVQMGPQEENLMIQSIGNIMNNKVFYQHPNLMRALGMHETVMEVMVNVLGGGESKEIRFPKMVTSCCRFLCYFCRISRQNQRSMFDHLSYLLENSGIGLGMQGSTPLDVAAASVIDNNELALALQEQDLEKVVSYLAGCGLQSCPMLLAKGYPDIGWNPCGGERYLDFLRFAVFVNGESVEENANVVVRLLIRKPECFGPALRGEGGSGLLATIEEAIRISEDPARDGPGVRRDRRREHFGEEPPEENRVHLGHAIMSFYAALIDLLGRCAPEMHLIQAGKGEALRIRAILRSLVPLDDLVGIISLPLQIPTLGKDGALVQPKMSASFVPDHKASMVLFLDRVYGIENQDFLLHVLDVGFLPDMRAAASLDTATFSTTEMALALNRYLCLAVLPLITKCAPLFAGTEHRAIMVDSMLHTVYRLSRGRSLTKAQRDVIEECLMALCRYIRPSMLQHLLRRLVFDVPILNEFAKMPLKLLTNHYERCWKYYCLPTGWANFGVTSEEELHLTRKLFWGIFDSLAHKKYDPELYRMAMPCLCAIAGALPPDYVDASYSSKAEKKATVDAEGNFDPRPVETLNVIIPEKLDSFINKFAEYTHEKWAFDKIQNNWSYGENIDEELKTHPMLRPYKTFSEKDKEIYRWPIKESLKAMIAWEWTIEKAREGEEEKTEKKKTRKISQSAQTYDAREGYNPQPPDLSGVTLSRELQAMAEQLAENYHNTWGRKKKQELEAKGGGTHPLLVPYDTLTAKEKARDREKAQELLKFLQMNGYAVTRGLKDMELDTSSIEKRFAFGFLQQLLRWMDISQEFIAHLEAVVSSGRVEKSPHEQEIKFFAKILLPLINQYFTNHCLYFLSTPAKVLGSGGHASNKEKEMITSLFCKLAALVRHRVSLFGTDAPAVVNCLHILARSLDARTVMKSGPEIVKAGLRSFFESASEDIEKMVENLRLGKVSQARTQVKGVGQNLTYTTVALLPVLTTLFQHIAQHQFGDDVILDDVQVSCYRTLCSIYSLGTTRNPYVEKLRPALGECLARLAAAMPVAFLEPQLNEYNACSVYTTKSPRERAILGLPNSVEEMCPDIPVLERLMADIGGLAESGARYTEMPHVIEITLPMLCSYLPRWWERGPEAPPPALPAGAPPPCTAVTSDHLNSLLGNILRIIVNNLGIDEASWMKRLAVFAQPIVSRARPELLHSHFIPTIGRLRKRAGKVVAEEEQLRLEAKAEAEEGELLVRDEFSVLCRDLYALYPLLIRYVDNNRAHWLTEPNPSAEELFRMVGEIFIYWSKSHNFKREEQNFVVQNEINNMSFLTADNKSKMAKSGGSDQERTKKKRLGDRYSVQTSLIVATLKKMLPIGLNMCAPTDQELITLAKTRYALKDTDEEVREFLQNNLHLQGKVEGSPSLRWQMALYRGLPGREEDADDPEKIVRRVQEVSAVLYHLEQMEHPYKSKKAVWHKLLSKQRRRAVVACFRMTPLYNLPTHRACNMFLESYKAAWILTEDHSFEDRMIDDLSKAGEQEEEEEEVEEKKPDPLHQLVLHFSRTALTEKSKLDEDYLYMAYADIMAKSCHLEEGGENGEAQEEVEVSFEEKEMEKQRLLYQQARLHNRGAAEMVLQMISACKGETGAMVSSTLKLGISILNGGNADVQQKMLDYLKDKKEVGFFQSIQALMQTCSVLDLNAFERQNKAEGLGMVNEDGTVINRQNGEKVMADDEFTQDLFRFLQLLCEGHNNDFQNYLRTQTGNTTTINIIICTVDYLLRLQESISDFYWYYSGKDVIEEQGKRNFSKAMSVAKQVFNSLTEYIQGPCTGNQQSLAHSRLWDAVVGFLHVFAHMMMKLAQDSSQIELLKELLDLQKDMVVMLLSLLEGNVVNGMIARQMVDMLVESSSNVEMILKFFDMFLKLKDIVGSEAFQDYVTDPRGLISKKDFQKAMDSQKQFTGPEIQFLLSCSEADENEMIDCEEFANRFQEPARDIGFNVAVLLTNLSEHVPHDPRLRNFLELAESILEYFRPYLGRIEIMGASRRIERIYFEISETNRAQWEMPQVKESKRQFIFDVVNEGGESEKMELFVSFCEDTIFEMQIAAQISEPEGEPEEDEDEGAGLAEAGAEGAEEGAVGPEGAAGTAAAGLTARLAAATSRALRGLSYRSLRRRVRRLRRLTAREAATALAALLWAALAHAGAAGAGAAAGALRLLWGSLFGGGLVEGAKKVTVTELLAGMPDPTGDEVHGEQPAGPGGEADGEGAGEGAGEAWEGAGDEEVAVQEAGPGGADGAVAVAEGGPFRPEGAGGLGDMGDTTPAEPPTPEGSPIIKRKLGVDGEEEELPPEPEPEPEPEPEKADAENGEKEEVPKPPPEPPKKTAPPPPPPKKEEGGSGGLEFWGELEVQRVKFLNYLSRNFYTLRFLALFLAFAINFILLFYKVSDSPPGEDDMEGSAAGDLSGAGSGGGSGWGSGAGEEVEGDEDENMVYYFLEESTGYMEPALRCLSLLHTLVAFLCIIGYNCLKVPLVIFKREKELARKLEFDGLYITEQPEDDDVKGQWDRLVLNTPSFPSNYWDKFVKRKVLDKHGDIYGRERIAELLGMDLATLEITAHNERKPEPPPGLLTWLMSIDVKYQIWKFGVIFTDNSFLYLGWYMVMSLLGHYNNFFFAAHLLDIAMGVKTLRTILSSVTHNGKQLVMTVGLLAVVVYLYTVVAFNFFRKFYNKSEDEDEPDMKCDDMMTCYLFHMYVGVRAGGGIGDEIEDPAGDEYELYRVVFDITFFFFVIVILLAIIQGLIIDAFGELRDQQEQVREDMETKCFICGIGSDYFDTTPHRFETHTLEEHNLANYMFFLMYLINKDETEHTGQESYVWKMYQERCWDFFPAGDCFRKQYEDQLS
parameter_measured: Hit in primary FLT-FRET HTS of LOPAC (FRET altered by > 4 SD vs DMSO)

Consider the following illustrative entries.
| compound | observed |
| --- | --- |
| CO[C@H]1C[C@@H]2CC[C@@H](C)[C@@](O)(O2)C(=O)C(=O)N2CCCC[C@H]2C(=O)O[C@H]([C@H](C)C[C@@H]2CC[C@@H](OC(=O)C(C)(CO)CO)[C@H](OC)C2)CC(=O)[C@H](C)/C=C(\C)[C@@H](O)[C@@H](OC)C(=O)[C@H](C)C[C@H](C)/C=C/C=C/C=C/1C [temsirolimus] | identified |
| C[C@H](O)[C@H](O)[C@H]1CNc2nc(N)[nH]c(=O)c2N1 [(6 R)-BH4] | observe |
| O=C(O)C1=CC(=C(c2ccc(O)c(C(=O)O)c2)c2ccc(O)c(C(=O)O)c2)C=CC1=O [aurintricarboxylic acid] | observe |
| CCN(CC)C(=S)SSC(=S)N(CC)CC [disulfiram] | identified |
| O=C(Nc1cccc(C(=O)Nc2ccc(S(=O)(=O)O)c3cc(S(=O)(=O)O)cc(S(=O)(=O)O)c23)c1)Nc1cccc(C(=O)Nc2ccc(S(=O)(=O)O)c3cc(S(=O)(=O)O)cc(S(=O)(=O)O)c23)c1 [NF023] | identified |
| Cc1ccc(C(=O)Nc2ccc(S(=O)(=O)O)c3cc(S(=O)(=O)O)cc(S(=O)(=O)O)c23)cc1NC(=O)c1cccc(NC(=O)Nc2cccc(C(=O)Nc3cc(C(=O)Nc4ccc(S(=O)(=O)O)c5cc(S(=O)(=O)O)cc(S(=O)(=O)O)c45)ccc3C)c2)c1 [suramin] | identified |

Below: the item to evaluate.
Look at this compound and give its reported Hit in primary FLT-FRET HTS of LOPAC (FRET altered by > 4 SD vs DMSO). CN=c1nc(-c2ccccc2)n(-c2ccccc2)s1 [SCH-202676] observe
